System: Mus musculus
PROTOCOL: Evaluated for anticonvulsant activity (ED50) by maximal electroshock (MES) seizure test in mouse by intraperitoneal administration.
Type: functional
Each entry below carries its recorded MES ED50.

COMPOUND | LIMIT_SIGN | MES ED50 [mg/kg]
C[C@H]1CCC[C@@](N)(c2ccccc2)C1.Cl | = | 8.01
C[C@H]1CC[C@@](N)(c2ccccc2)CC1.Cl | = | 33.75
C[C@H]1CCCC[C@]1(N)c1ccccc1.Cl (racemic) | = | 8.01
Cl.NC1(c2cccc(O)c2)CCCCC1 | = | 35.25
CSc1ccc(C2(N)CCCCC2)cc1.Cl | = | 40.8
CSc1cccc(C2(N)CCCCC2)c1.Cl | = | 32.88
Cc1cccc(C2(N)CCCCC2)c1.Cl | = | 19.11
C[C@H]1CCC[C@](N)(c2ccccc2)C1.Cl | = | 26.38
C[C@H]1CC[C@](N)(c2ccccc2)CC1.Cl | = | 13.53
COc1cccc(C2(N)CCCCC2)c1.Cl | = | 14.78
Cc1ccc(C2(N)CCCCC2)cc1.Cl | > | 74
Cl.NC1(c2cccs2)CCCCC1 | = | 10.5
Cl.NC1(c2ccccc2C(F)(F)F)CCCCC1 | = | 30.36
Cl.NCC1(c2ccccc2)CCCCC1 | = | 27.7
CCC(N)(CC)c1ccccc1.Cl | = | 31.23
CSc1ccccc1C1(N)CCCCC1.Cl | = | 26.18
Cc1ccccc1C1(N)CCCCC1.Cl | = | 4.93
Cl.NC1(c2ccc(F)cc2)CCCCC1 | = | 26.18
Cl.NC1(Cc2ccccc2)CCCCC1 | = | 34.52
Cl.NC1(c2ccc3ccccc3c2)CCCCC1 | = | 16.91
Cl.NC1(c2cccc(F)c2)CCCCC1 | = | 9.36
CCCCC1(N)CCCCC1.Cl | > | 40.6
c1ccc(C2(N3CCCCC3)CCCCC2)cc1 | = | 3.1
Cl.NC1(c2ccccc2)CCCCC1 | = | 7.04
Cl.NC1(c2ccccc2)CCCC1 | = | 18.52
C[C@@H]1CCCC[C@]1(N)c1ccccc1.Cl (racemic) | = | 16.87
CN(C)C1(c2ccccc2)CCCCC1.Cl | = | 4.86
Cl.NC1(c2ccccc2F)CCCCC1 | = | 22.93
COc1ccccc1C1(N)CCCCC1.Cl | = | 11.11

* * *

Each entry below carries its recorded pKi.
TARGET_DESC: Glutamate NMDA receptor
PROTOCOL: Evaluated in vitro binding affinity against PCP receptor using [3H]TCP as radioligand in rat brain membranes
pKi: −log10 of the molar value.
PROPERTY: pKi

MOL_SMILES | OBS_VALUE
Cl.NC1(c2c(F)c(F)c(F)c(F)c2F)CCCCC1 | 5.00
C[N+](C)(C)C1(c2ccccc2)CCCCC1.[I-] | 4.84
Cl.NC1(c2ccccc2)CCCCC1 | 6.28
COc1ccccc1C1(N)CCCCC1.Cl | 6.07

* * *

Test system: Mus musculus
PROTOCOL: Evaluated for anticonvulsant activity (ED50) by maximal electroshock (MES) seizure test in mouse by intraperitoneal administration.
Assay type: functional
Each entry below carries its recorded MES ED50.
PROPERTY: MES ED50 (mg/kg)

MOL_SMILES | LIMIT_SIGN | OBS_VALUE
CNC1(c2ccccc2)CCCCC1.Cl | = | 4.62
C[C@@H]1CCC[C@](N)(c2ccccc2)C1.Cl | = | 20.86
Cl.NC1(c2cccc(C(F)(F)F)c2)CCCCC1 | = | 24.31
C[N+](C)(C)C1(c2ccccc2)CCCCC1.[I-] | > | 64
Cl.NC1(c2c(F)c(F)c(F)c(F)c2F)CCCCC1 | = | 33.81
Cl.NC1(c2ccccc2)CCCCCC1 | = | 19.73
Cl.NC1(c2cccc(OCc3ccccc3)c2)CCCCC1 | = | 29.41
C[C@@H]1CCC[C@@](N)(c2ccccc2)C1.Cl | = | 8.04
Cl.NC1(c2ccc(-c3ccccc3)cc2)CCCCC1 | = | 18.81
Cl.NC1(c2cc3ccccc3c3ccccc23)CCCCC1 | = | 16.02
COc1ccc(C2(N)CCCCC2)cc1.Cl | = | 32.67

* * *

TARGET_DESC: Glutamate NMDA receptor
PROTOCOL: Evaluated in vitro binding affinity against PCP receptor using [3H]TCP as radioligand in rat brain membranes
pKi: −log10 of the molar value.
Values of pKi greater than or equal to 6 map to 1; values below map to -1.

MOL_SMILES | CLASS_ASSIGNMENT
Cl.NC1(c2ccccc2)CCCC1 | -1
COc1cccc(C2(N)CCCCC2)c1.Cl | 1
Cl.NC1(c2cccc(C(F)(F)F)c2)CCCCC1 | -1
C[C@H]1CCC[C@](N)(c2ccccc2)C1.Cl | 1
Cl.NC1(c2cccc(O)c2)CCCCC1 | 1
Cl.NC1(c2ccc3ccccc3c2)CCCCC1 | -1

* * *

TARGET_DESC: Glutamate NMDA receptor
PROTOCOL: Evaluated in vitro binding affinity against PCP receptor using [3H]TCP as radioligand in rat brain membranes

COMPOUND | UNITS_OF_MEASURE | Ki
C[C@H]1CCC[C@@](N)(c2ccccc2)C1.Cl | µM | 1.64
CCC(N)(CC)c1ccccc1.Cl | µM | 6
Cc1ccccc1C1(N)CCCCC1.Cl | µM | 7.8
CNC1(c2ccccc2)CCCCC1.Cl | µM | 0.347
Cc1cccc(C2(N)CCCCC2)c1.Cl | µM | 0.592
Cl.NC1(c2ccccc2C(F)(F)F)CCCCC1 | µM | 12.4
Cl.NC1(c2ccc(-c3ccccc3)cc2)CCCCC1 | µM | 86
Cl.NC1(c2cccc(F)c2)CCCCC1 | µM | 0.675
Cl.NC1(c2ccccc2)CCCCCC1 | µM | 2.6
Cl.NC1(c2ccc(F)cc2)CCCCC1 | µM | 0.923
C[C@@H]1CCC[C@@](N)(c2ccccc2)C1.Cl | µM | 8
Cl.NCC1(c2ccccc2)CCCCC1 | µM | 5.1
C[C@H]1CC[C@@](N)(c2ccccc2)CC1.Cl | µM | 8.4
CSc1cccc(C2(N)CCCCC2)c1.Cl | µM | 2.42
Cl.NC1(c2cccs2)CCCCC1 | µM | 0.145
C[C@H]1CCCC[C@]1(N)c1ccccc1.Cl (racemic) | µM | 2
Cl.NC1(c2cccc(OCc3ccccc3)c2)CCCCC1 | µM | 10.6
Cl.NC1(c2ccccc2F)CCCCC1 | µM | 10.7
Cc1ccc(C2(N)CCCCC2)cc1.Cl | µM | 7.3
C[C@@H]1CCC[C@](N)(c2ccccc2)C1.Cl | µM | 1.2
CSc1ccccc1C1(N)CCCCC1.Cl | µM | 0.82
c1ccc(C2(N3CCCCC3)CCCCC2)cc1 | µM | 0.06
C[C@H]1CC[C@](N)(c2ccccc2)CC1.Cl | µM | 1.1
Cl.NC1(Cc2ccccc2)CCCCC1 | µM | 16
Cl.NC1(c2cc3ccccc3c3ccccc23)CCCCC1 | µM | 27.5
CSc1ccc(C2(N)CCCCC2)cc1.Cl | µM | 43
COc1ccc(C2(N)CCCCC2)cc1.Cl | µM | 121
C[C@@H]1CCCC[C@]1(N)c1ccccc1.Cl (racemic) | µM | 1.6

* * *

Species on record: Mus musculus
PROTOCOL: TI value is the ratio between TD50 and ED50
Type: functional
Decide using TI alone. Strictly below 2: true. Equal to or above 2: false.

MOLECULE | CLASS_ASSIGNMENT
C[C@H]1CCCC[C@]1(N)c1ccccc1.Cl (racemic) | true
Cl.NC1(c2ccccc2)CCCCC1 | false
Cl.NC1(c2c(F)c(F)c(F)c(F)c2F)CCCCC1 | true
CSc1cccc(C2(N)CCCCC2)c1.Cl | true
CSc1ccccc1C1(N)CCCCC1.Cl | true
Cl.NC1(c2cccc(F)c2)CCCCC1 | false
Cl.NC1(c2cccc(C(F)(F)F)c2)CCCCC1 | true
Cl.NC1(c2ccc3ccccc3c2)CCCCC1 | true
Cc1cccc(C2(N)CCCCC2)c1.Cl | true

* * *

Organism: Mus musculus
PROTOCOL: TI value is the ratio between TD50 and ED50
Format: functional
Decide using TI alone. Strictly below 2: Criterion met. Equal to or above 2: Criterion not met.

MOL_SMILES | CLASS_ASSIGNMENT
Cc1ccccc1C1(N)CCCCC1.Cl | Criterion met
Cl.NC1(c2ccccc2F)CCCCC1 | Criterion not met
COc1ccccc1C1(N)CCCCC1.Cl | Criterion not met
COc1ccc(C2(N)CCCCC2)cc1.Cl | Criterion not met
CSc1ccc(C2(N)CCCCC2)cc1.Cl | Criterion met
C[C@H]1CC[C@](N)(c2ccccc2)CC1.Cl | Criterion not met
Cl.NCC1(c2ccccc2)CCCCC1 | Criterion met
CNC1(c2ccccc2)CCCCC1.Cl | Criterion met
CCC(N)(CC)c1ccccc1.Cl | Criterion met
Cl.NC1(c2ccccc2)CCCC1 | Criterion not met
CN(C)C1(c2ccccc2)CCCCC1.Cl | Criterion not met
Cl.NC1(c2ccccc2)CCCCCC1 | Criterion not met
C[C@@H]1CCC[C@](N)(c2ccccc2)C1.Cl | Criterion not met
